# measured_target: Toll-like receptor 7 (Homo sapiens)
# method_notes: Agonist activity at TLR7 in human whole blood assessed as induction of IL-1beta production after 20 hrs by electrochemiluminescence assay
# Assay type: tissue-based
measure_name: EC50 (µM)

[[record]]
compound = "CCC[C@H](C)Oc1nc(N)c2[nH]c(=O)n(CCCCCN3CCCCC3)c2n1 [GSK-2245035]"
measured_value = 5.01


----------
# measured_target: UniProtKB Q9NYK1
# method_notes: Agonist activity at TLR7 in human PBMC assessed as IFN-alpha production after 24 hrs by electrochemiluminescence assay
# Assay type: cell-based
# maps each entry to its log10(EC50)
measure_name: log10(EC50) (log10 of the value in nM)

[[record]]
compound = "CCCC[C@H](C)Oc1nc(N)c2[nH]c(=O)n(CCCCN3CCCCC3)c2n1"
measured_value = -0.20

[[record]]
compound = "CCC[C@H](C)Oc1nc(N)c2[nH]c(=O)n(CCCCC3CCOCC3)c2n1"
measured_value = 1.60

[[record]]
compound = "CC(C)Oc1nc(N)c2[nH]c(=O)n(CCCCCN3CCCCC3)c2n1"
measured_value = 0.00

[[record]]
compound = "CCCCOc1nc(N)c2[nH]c(=O)n(CCCCCN3CCCCC3)c2n1"
measured_value = 0.90

[[record]]
compound = "CCCCOc1nc(N)c2[nH]c(=O)n(CCCCCCN3CCCCC3)c2n1"
measured_value = 0.20

[[record]]
compound = "CCCCOc1nc(N)c2[nH]c(=O)n(CCCCC3CCNCC3)c2n1"
measured_value = -0.20

[[record]]
compound = "CCCCOc1nc(N)c2[nH]c(=O)n(CCCCN3CCOCC3)c2n1"
measured_value = 2.30

[[record]]
compound = "CCCCOc1nc(N)c2[nH]c(=O)n(CCCCC3CCN(C(C)C)CC3)c2n1"
measured_value = -0.10

[[record]]
compound = "CCCCOc1nc(N)c2[nH]c(=O)n(CCCCC3CCCNC3)c2n1 (stereo not given)"
measured_value = 0.40

[[record]]
compound = "CCC[C@H](C)Oc1nc(N)c2[nH]c(=O)n(CCCCN3CCCCC3)c2n1"
measured_value = -0.10


----------
# measured_target: Toll-like receptor 7 (Homo sapiens, UniProt Q9NYK1)
# Sequence (Q9NYK1 whole entry): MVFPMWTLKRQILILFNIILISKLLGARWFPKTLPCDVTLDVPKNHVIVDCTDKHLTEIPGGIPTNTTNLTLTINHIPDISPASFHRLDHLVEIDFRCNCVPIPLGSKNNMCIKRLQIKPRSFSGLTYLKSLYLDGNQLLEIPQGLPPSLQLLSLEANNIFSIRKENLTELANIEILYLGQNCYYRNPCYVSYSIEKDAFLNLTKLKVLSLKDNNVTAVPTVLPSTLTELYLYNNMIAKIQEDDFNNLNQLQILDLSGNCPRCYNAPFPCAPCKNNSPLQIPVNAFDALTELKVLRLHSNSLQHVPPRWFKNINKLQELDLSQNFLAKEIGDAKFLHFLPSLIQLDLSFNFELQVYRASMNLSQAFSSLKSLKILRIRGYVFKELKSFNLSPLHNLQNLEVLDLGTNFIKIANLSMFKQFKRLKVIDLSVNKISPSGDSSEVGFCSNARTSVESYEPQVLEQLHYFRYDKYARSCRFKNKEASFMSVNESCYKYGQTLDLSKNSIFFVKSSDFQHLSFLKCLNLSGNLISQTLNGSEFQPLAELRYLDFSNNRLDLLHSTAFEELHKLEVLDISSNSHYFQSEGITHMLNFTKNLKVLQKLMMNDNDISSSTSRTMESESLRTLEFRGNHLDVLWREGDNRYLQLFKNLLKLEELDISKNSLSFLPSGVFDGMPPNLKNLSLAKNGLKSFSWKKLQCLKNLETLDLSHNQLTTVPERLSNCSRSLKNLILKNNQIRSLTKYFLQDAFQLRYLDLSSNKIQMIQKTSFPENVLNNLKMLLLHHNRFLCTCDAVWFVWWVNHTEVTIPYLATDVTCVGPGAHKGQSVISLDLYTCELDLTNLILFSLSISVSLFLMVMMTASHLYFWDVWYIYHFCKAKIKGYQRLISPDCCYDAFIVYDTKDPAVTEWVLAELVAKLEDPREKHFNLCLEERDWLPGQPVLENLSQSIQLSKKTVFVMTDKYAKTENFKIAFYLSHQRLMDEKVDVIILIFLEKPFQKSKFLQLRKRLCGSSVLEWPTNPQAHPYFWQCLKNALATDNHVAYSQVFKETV
# method_notes: Agonist activity at TLR7 in human PBMC assessed as TNF-alpha production after 24 hrs by electrochemiluminescence assay
# Format: cell-based
pEC50: −log10 of the molar value.
measure_name: pEC50

[[record]]
molecule = "Nc1nc(OC2CCCC2)nc2c1[nH]c(=O)n2CCCCN1CCCCC1"
measure_name = "pEC50"
measured_value = 4.90

[[record]]
molecule = "CCCCOc1nc(N)c2[nH]c(=O)n(CCCCN3CCN(C(C)C)CC3)c2n1"
measure_name = "pEC50"
measured_value = 5.20

[[record]]
molecule = "CCCCOc1nc(N)c2[nH]c(=O)n(CCCCCN3CCCCC3)c2n1"
measure_name = "pEC50"
measured_value = 5.30

[[record]]
molecule = "CCCCOc1nc(N)c2[nH]c(=O)n(CCCCN3CCOCC3)c2n1"
measure_name = "pEC50"
measured_value = 5.40

[[record]]
molecule = "CCCCOc1nc(N)c2[nH]c(=O)n(CCCCC3CCCNC3)c2n1 (configuration not stated)"
measure_name = "pEC50"
measured_value = 6.00

[[record]]
molecule = "CCC[C@H](C)Oc1nc(N)c2[nH]c(=O)n(CCCCN3CCCCC3)c2n1"
measure_name = "pEC50"
measured_value = 5.60

[[record]]
molecule = "CCCCOc1nc(N)c2[nH]c(=O)n(CCCCCCN3CCCCC3)c2n1"
measure_name = "pEC50"
measured_value = 5.70

[[record]]
molecule = "CCCCOc1nc(N)c2[nH]c(=O)n(CCCCN3CCCCC3)c2n1"
measure_name = "pEC50"
measured_value = 5.20

[[record]]
molecule = "CC[C@H](C)Oc1nc(N)c2[nH]c(=O)n(CCCCCN3CCCCC3)c2n1"
measure_name = "pEC50"
measured_value = 5.00

[[record]]
molecule = "CCCCOc1nc(N)c2[nH]c(=O)n(CCCCN3CCCCCC3)c2n1"
measure_name = "pEC50"
measured_value = 5.20

[[record]]
molecule = "CCCC[C@H](C)Oc1nc(N)c2[nH]c(=O)n(CCCCN3CCCCC3)c2n1"
measure_name = "pEC50"
measured_value = 5.60

[[record]]
molecule = "CCCCOc1nc(N)c2[nH]c(=O)n(CCCCN3CCCC3)c2n1"
measure_name = "pEC50"
measured_value = 4.80


Data credit: ChEMBL document CHEMBL5252515
